AUC(0-t) values for the molecules below.
- PROTOCOL: Pharmacokinetics of DPB after oral DPB or NaDPB and IV NaDPB in Sprague-Dawley rats
- Assay type: in vivo
- MEASUREMENT SETUP: female, Sprague-Dawley, rat, in vivo, po, 150 mg/kg, female, oral 150 mg/kg, analyte DPB; read-out: AUC0-48
READOUT TYPE: AUC(0-t)

- MOLECULE: "O=C1NC(=O)C(c2ccccc2)(c2ccccc2)C(=O)N1.[Na] [NaDPB, sodium 5,5-diphenyl barbiturate]"
  VALUE MEASURED: "4040 µg·h/mL"
- MOLECULE: "O=C1NC(=O)C(c2ccccc2)(c2ccccc2)C(=O)N1 [DPB, 5,5-diphenyl barbituric acid, reference compound]"
  VALUE MEASURED: "1950 µg·h/mL"

---

- PROTOCOL: Brain concentration of DPB after oral DPB or NaDPB and IV NaDPB in Sprague-Dawley rats
- Type: in vivo
- MEASUREMENT SETUP: rat, in vivo, male, IV infusion 150 mg/kg, 24 hr
READOUT TYPE: concentration at 24 h

- COMPOUND: "O=C1NC(=O)C(c2ccccc2)(c2ccccc2)C(=O)N1.[Na] [NaDPB, sodium 5,5-diphenyl barbiturate]"
  READOUT TYPE: "concentration at 24 h"
  VALUE MEASURED: "35600 ng/g"

---

- PROTOCOL: Pharmacokinetics of DPB after oral DPB or NaDPB and IV NaDPB in Beagle dogs
- Type: in vivo
- MEASUREMENT SETUP: Beagle, dog, in vivo, iv, 75 mg/kg, IV infusion 75 mg/kg, analyte DPB in plasma, read-out: AUC0-t
READOUT TYPE: AUC(0-t) (µg·h/mL)

- COMPOUND: "O=C1NC(=O)C(c2ccccc2)(c2ccccc2)C(=O)N1.[Na] [NaDPB, sodium 5,5-diphenyl barbiturate]"
  READOUT TYPE: "AUC(0-t)"
  VALUE MEASURED: 1570

---

- PROTOCOL: Pharmacokinetics of DPB after oral DPB or NaDPB and IV NaDPB in Sprague-Dawley rats
- Format: in vivo
- MEASUREMENT SETUP: rat, in vivo; Sprague-Dawley rats, male, IV infusion 150 mg/kg, analyte DPB in plasma

- MOLECULE: "O=C1NC(=O)C(c2ccccc2)(c2ccccc2)C(=O)N1.[Na] [NaDPB, sodium 5,5-diphenyl barbiturate]"
  UNITS LABEL: "h"
  Tmax: 1

---

- PROTOCOL: Pharmacokinetics of MMMDPB and DPB after oral MMMDPB or NaMMMDPB and IV NaMMMDPB in Beagle dogs
- MEASUREMENT SETUP: dog, in vivo, po, 30 mg/kg, mean oral bioavailability of MMMDPB, oral 30 mg/kg, analyte MMMDPB, mean
READOUT TYPE: bioavailability (%)

- MOLECULE: "COCN1C(=O)NC(=O)C(c2ccccc2)(c2ccccc2)C1=O.[Na]"
  READOUT TYPE: "bioavailability"
  VALUE MEASURED: 60

---

- PROTOCOL: in vivo
- MEASUREMENT SETUP: Beagle, dog, po, 30 mg/kg, mean oral bioavailability of MMMDPB, Beagle dogs, oral 30 mg/kg, analyte MMMDPB, mean
READOUT TYPE: bioavailability (%)

- COMPOUND: "COCN1C(=O)NC(=O)C(c2ccccc2)(c2ccccc2)C1=O [MMMDPB, reference compound]"
  VALUE MEASURED: 107
